- Tested on: Mus musculus
- procedure-summary: Optimal dose administered intraperitoneally on days 1,5 and 9 after intraperitoneal inoculation of P388 leukemia cells.
- Format: functional
result-type: OD (mg/kg)
Give the quantity in mg/kg, number only.

Supply recorded OD for CN(C)CCNC(=O)c1cccc2cccnc12 here.
100

Query OD for CN(C)CCNC(=O)c1cccc2c(-c3ccccc3)ccnc12
150

Hello, please tell me recorded OD for this one: CN(C)CCNC(=O)c1cccc2cc(-c3ccccc3)cnc12
100

Tell me measured OD for CN(C)CCNC(=O)c1cc(-c2ccccc2)cc2cccnc12 please.
65

// fetch OD given entry CN(C)CCNC(=O)c1ccc(-c2ccccc2)c2cccnc12
100

Answer with the recorded OD for the compound listed here: CN(C)CCNC(=O)c1cccc2cc3ccccc3nc12
66

Recall and state the measured OD for CN(C)CCNC(=O)c1cccc2ccc(-c3ccccc3)nc12 .
100

----------
- Tested on: Mus musculus
- procedure-summary: Optimal dose administered intraperitoneally on days 5,9 and 13 after intravenous inoculation of lewis lung carcinoma cells.
- Type: functional
Would you kindly list OD for each of these molecules?
Record the value in mg/kg, omitting the unit from your answer.

Kindly indicate its recorded OD. Item: CN(C)CCNC(=O)c1cc(-c2ccccc2)cc2cccnc12
100

Return OD (reported value) for this molecule: CN(C)CCNC(=O)c1cccc2cc(-c3ccccc3)cnc12
100

Please report the measured OD for CN(C)CCNC(=O)c1cccc2cc3ccccc3nc12
100

Please report the measured OD for CN(C)CCNC(=O)c1cccc2ccc(-c3ccccc3)nc12
100

----------
- Species on record: Mus musculus
- procedure-summary: Percentage increase in lifespan of treated animals(at the optimal dose) compared to controls. Average lifespan of control animals was 11 days (P388).
- Type: functional
Assignment: determine reported ILS max for the given compounds.

Identify measured ILS max corresponding to CN(C)CCNC(=O)c1cccc2c(-c3ccccc3)ccnc12
<20%

Give ILS max for the following compound: CN(C)CCNC(=O)c1ccc(-c2ccccc2)c2cccnc12
<20%

# return recorded ILS max for entry CN(C)CCNC(=O)c1cccc2cccnc12
<20%

The values you see were collected from ChEMBL document CHEMBL1124103.
